From: ChEMBL document CHEMBL5614392

biological target: UniProt:Q08499; test: Inhibition of PDE4D7 (unknown origin) using FAM-cyclic-3'5'-AMP as substrate at 100 nM incubated for 1 hrs by fluorescence polarization assay relative to control
Sequence (Q08499 whole entry): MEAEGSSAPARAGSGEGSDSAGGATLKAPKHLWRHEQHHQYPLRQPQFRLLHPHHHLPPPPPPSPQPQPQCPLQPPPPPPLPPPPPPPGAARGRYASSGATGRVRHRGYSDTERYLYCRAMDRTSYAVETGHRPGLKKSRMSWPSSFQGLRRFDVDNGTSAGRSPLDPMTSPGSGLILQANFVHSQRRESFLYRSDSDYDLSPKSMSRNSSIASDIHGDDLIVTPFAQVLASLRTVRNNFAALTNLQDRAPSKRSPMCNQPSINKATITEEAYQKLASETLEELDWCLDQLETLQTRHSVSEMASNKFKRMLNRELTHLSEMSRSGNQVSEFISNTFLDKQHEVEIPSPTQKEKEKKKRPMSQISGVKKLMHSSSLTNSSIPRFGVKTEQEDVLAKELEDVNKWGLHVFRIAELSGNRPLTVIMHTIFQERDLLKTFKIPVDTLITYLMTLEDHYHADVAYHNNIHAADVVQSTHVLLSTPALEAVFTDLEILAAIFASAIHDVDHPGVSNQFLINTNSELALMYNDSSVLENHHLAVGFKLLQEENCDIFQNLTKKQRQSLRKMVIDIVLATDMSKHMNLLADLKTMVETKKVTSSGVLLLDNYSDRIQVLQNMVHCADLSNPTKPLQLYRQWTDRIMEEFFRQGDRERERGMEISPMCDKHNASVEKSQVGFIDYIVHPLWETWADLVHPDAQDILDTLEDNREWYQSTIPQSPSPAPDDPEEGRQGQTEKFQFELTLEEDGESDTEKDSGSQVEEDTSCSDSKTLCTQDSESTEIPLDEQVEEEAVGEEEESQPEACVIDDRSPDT
assay.endpoint: inhibition (%)
Numbers only, in %.

Before answering, review these 3 worked examples.
structure.smiles.string | unit.string | inhibition
Fc1cnccc1-c1ccc(OC(F)F)c2nn(C3CC3)cc12 | % | 15
COc1ccc(-c2cccc(C#N)c2)c2cn(C3(C(=O)NCC(C)C)CC3)nc12 | % | 18
FC(F)Oc1ccc(-c2ccncc2)c2cn(C3CC3)nc12 | % | 77

Enquiry: Can you look up the measured inhibition of `COc1cc(-c2ccc(OC(F)F)c3nn(C4CC4)cc23)cc(OC)c1OC` for me?
Return: 86
